Here is a set of compounds with reported pIC50 for Hematopoietic prostaglandin D synthase (Homo sapiens, UniProt O60760), compiled from the literature.
Hey, just a heads up that pIC50 is the negative log base 10 of the concentration in molar.

Below, 2 compounds whose answers are already recorded.
smilescode=c1ccc(C(OC2CCN(CCCc3nnn[nH]3)CC2)c2ccccc2)cc1 measuredmetric=pIC50 datavalue=5.74
smilescode=Cn1cccc1C(=O)N1CCN(C(=O)Nc2ccc(N3CCC(CCCn4ccnn4)CC3)cc2)CC1 measuredmetric=pIC50 datavalue=7.43

State the recorded pIC50 for this entry: COc1ccc2c(n1)c(C)cn2NC(=O)c1cnc(-c2ccccn2)nc1C
8.52
